target: T1, human activated protein C (human, UniProt P04070 43-197; P04070 212-461); test: SPR (Biacore), 1:1 binding model
T1 construct: also called human aPC; human APC
Recorded measurements of kon, one per entry
Write it as a number; the unit M⁻¹ s⁻¹ goes unstated.

// worked examples, kon included
Hu1573-17 (antibody, V domains shown, Humanized IgG, human gamma 1 / kappa constant regions by vectors pCP-hCg1 and pCP-hck; also called H1573VH.1F + H1573Vk.2B) VH: EVQLVESGGGLVQPGGSLRLSCAASGFTFSNYYLNWVRQAPGKGLEWVADIRLKSNNYEKHYAESVKGRFTISRDDSKSSVYLQMNSLKTEDTAVYYCIREGDYFDYWGQGTTVTVSS VL: DIVMTQTPLSLSVTPGQPASISCRASESVDSFGATFMHWYLQKPGQPPQLLIYLASNLESGVPDRFSGSGSRTDFTLKISRVEAEDVGVYYCQQNNEDPYTFGQGTKLEIKR
1.45e+06
1573 Chimeric (antibody, V domains shown, IgG; also called chimera 1573; 1573VH (chimeric) + 1573Vk (chimeric)) VH: EVKLEESGGGLVQPGGSMKLSCVASGFTFSNYYLNWVRQSPEKGLEWVADIRLKSNNYEKHYAESVKGRFTISRDDSKSSVYLQMNNLRAEDTGIYYCIREGDYFDYWGQGTTLTVSS VL: NIVLTQSPASLAVSLGQRATISCRASESVDSFGATFMHWYQQKPGQPPKLLIYLASNLESGVPARFSGSGSRTDFTLTIDPVEADDAATYYCQQNNEDPYTFGGGTKLEIKR
2.32e+06

As a next step, examine the binder that follows.
I have this binder here, Hu1573-14 (antibody, V domains shown, Humanized IgG, human gamma 1 / kappa constant regions by vectors pCP-hCg1 and pCP-hck; also called H1573VH.1E + H1573Vk.2B) VH: EVQLVESGGGLVQPGGSLRLSCAASGFTFSNYYLNWVRQAPGKGLEWVADIRLKSNNYEKHYAESVKGRFTISRDDSKNSVYLQMNSLKTEDTAVYYCIREGDYFDYWGQGTTVTVSS VL: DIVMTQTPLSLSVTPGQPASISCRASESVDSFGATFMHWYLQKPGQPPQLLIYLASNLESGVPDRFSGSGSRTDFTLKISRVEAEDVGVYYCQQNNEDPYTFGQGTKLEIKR , and I need its recorded kon. 1.4e+06

The reported numbers originate from patent USRE49099.
